Origin of measurements: patent US11419858B2

System: WT (C57BL/6J) mice
Assay: Acute safety/toxicity, single dose
Format: in vivo
Settings: GJ103 10 mg/kg i.p., one dose, a week later
Readout Kind: ALP (U/L)
Provide the reading as a plain figure in U/L.

Task: Recorded ALP for COc1cccc(-n2c(SCC(=O)O)nnc2-c2ccccn2)c1 with WT (C57BL/6J) mice, please?
Output: 47

====

Tested on: WT (C57BL/6J) mice
Assay: Acute safety/toxicity, single dose
Format: in vivo
Settings: GJ103 50 mg/kg i.p., one dose, a week later
Readout Kind: ALT (U/L)
Please reply with the bare figure in U/L and do not write the unit itself.

Task: Data request, read-out ALT, for COc1cccc(-n2c(SCC(=O)O)nnc2-c2ccccn2)c1 [GJ103]
Output: 30
